measurement-target: Interleukin-1 receptor-associated kinase 4 (Homo sapiens, UniProt Q9NWZ3)
Sequence (Q9NWZ3 whole entry): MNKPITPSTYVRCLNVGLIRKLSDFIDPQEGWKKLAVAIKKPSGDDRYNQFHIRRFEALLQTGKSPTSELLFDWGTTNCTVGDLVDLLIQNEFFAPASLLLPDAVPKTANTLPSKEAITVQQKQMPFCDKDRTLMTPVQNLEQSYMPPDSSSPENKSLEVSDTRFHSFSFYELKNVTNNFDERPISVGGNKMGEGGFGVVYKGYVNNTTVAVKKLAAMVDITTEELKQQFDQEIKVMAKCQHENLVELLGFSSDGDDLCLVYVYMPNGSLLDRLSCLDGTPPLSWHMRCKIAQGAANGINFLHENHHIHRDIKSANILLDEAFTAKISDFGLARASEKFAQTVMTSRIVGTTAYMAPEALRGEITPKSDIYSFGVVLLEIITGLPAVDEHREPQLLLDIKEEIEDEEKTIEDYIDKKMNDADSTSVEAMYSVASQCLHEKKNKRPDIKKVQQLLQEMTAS
experiment: Inhibition of human recombinant N-terminal GST-tagged full-length IRAK4 expressed in baculovirus infected Sf9 insect cells using 5FAM-RKRQGSVRRRVH-COOH as substrate in presence of ATP by IMAP fluorescence polarization assay
Reported IC50 values follow for various compounds

>  <compound>
Cn1cc(NC(=O)c2cccc(-c3cnccc3Cl)n2)c(C(N)=O)n1

>  <IC50>
683 nM

$$$$

Given the compound Cn1cc(NC(=O)c2cccc(-c3ccnc(NCC4CC4)c3)c2)c(C(N)=O)n1 , what is its reported IC50?
187 nM
